Hey, just so you know, these numbers are from patent US20090221624A1.

Assay: in vitro
Conditions: RSV CC50
observed.property: CC50 (µM)
I only need the number, in µM, no unit after it.

>  <smiles.notation>
CCc1ccccc1Nc1c2ccccc2nc2ccccc12

>  <CC50 / µM>
32.9

$$$$
>  <smiles.notation>
CCOC(=O)c1cnc2c(ccc3ccccc32)c1NCc1ccco1

>  <CC50 / µM>
41.6

$$$$
>  <smiles.notation>
CCOc1ccc2nc(C)cc(Nc3ccc(N(C)C)cc3)c2c1

>  <CC50 / µM>
31

$$$$
>  <smiles.notation>
c1cncc(CNc2c3ccccc3nc3ccccc23)c1

>  <CC50 / µM>
28.6

$$$$
>  <smiles.notation>
CCOC(=O)c1cnc2c(Cl)cc(Cl)cc2c1NCc1ccco1

>  <CC50 / µM>
44.1

$$$$

Task item: Bench note: what CC50 did CCOc1ccc2nc(C)cc(Nc3ccc(OC)c(OC)c3)c2c1 show?
Reply: 27.8

Task item: Name the reported CC50 value associated with the compound Cc1cc(Nc2cccc(C(F)(F)F)c2)c2cc(Cl)ccc2n1
Reply: 60

Task item: Returns the measured CC50 for the input compound. Input: Cc1cc(Nc2ccc(C)c(Cl)c2)c2cccc(C)c2n1
Reply: 66.2

Task item: Find the recorded CC50 belonging to COC(=O)c1ccc2nc(C)cc(Nc3cccc(O)c3)c2c1 and report it.
Reply: 72.3

Task item: # lookup: CC50 of Cc1cc(NNC(=O)OCc2ccccc2)c2ccccc2n1
Reply: 51.1
